tgt: T1, cynomolgus monkey serum albumin (cynomolgus monkey, UniProt A2V9Z4 25-608)
T1 construct: Immobilised on SPR chips; also called cynoSA; cynomolgus albumin
assay-summary: SPR Biacore 8K+ SCK, albumin on chip, pH 7.4
# log10 koff per record follows
The figures below represent log10 of koff, where koff is stated in s⁻¹.

For Alb23 G99A (VHH, VHH alone) VHH: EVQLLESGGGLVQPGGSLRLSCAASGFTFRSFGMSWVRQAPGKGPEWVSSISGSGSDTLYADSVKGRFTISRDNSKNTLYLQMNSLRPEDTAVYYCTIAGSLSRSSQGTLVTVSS the binder record lists log10 koff as -1.09

For Alb23 M34A (VHH, VHH alone) VHH: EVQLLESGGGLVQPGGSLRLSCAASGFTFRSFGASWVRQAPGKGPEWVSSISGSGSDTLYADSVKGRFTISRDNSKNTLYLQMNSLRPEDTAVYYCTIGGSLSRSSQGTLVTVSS the binder record lists log10 koff as -0.45

For Alb23 G100A (VHH, VHH alone) VHH: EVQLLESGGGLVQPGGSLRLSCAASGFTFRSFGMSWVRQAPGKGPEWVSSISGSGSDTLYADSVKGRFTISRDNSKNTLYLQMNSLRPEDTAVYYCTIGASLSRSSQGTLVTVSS the binder record lists log10 koff as -1.58

For Alb23 G33A/S101A (VHH, VHH alone) VHH: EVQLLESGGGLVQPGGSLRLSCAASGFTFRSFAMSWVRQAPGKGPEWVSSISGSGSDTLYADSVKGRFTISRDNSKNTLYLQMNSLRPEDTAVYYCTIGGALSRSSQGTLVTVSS the binder record lists log10 koff as -0.89

Continue with the next binder.
For Alb23 L59A (VHH, VHH alone) VHH: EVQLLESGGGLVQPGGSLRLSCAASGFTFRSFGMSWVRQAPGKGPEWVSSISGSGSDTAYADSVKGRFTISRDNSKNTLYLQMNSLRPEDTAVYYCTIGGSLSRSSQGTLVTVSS the binder record lists log10 koff as -1.35
